This section presents compounds with their documented GI50 values.
- target-system: Ba/F3 EGFR-Del19/C797S (Homo sapiens, UniProt P00533, C797S, cells depend on it, form not given)
- Sequence (P00533 with tags, fused parts or gaps DEL746-750/C797S, form open): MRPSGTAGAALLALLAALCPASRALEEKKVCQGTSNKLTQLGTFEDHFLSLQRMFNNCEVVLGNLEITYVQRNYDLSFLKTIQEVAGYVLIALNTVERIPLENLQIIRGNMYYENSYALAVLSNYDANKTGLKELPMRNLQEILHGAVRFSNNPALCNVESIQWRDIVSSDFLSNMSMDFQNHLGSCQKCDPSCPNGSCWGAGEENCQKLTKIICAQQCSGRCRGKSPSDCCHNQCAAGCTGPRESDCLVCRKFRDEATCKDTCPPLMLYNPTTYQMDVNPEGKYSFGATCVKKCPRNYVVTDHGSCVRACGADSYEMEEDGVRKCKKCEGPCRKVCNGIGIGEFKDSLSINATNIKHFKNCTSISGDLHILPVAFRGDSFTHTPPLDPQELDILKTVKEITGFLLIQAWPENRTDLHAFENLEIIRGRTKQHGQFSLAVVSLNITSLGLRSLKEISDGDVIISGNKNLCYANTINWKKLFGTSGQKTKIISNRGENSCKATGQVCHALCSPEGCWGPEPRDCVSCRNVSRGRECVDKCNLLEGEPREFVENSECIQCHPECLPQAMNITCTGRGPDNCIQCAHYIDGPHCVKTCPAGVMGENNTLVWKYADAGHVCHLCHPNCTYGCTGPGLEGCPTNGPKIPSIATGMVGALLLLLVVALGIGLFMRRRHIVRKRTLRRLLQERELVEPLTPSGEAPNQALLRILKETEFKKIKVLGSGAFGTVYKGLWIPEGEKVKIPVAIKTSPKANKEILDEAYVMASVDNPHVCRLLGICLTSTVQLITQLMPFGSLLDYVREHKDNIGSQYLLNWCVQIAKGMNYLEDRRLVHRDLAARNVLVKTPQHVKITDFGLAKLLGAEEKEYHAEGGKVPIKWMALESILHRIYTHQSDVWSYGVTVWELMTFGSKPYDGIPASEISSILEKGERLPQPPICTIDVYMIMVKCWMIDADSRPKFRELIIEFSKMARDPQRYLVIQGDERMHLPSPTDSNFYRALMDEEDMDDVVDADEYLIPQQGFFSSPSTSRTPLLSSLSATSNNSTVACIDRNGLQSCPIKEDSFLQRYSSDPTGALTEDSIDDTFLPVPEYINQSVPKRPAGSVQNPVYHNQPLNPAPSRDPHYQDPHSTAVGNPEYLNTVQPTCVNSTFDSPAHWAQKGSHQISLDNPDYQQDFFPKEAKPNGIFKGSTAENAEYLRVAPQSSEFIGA
- protocol-notes: Ba/F3 viability assay (CellTiter-Glo), DC
- Assay type: cell-based
- assay-context: anti-proliferation, read-out: BaF3 DC IC50
- Text: Inhibition of cell proliferation can be studied using Ba/F3 viability assays, including the Promega CellTiter-Glo cell viability assay. This assay can be used to study the effect of compounds described herein in the following assays: (1) Ba/F3 Parental; (2) Ba/F3 EGFR-Del19/T790M; (3); Ba/F3 EGFR-Del19/C797S; and (4) Ba/F3 EGFR-Del19/T790M/C797S.

Recorded GI50, per entry:
>>> endpoint_result("CC1CCOc2c(cnn2C)-c2nccc(n2)Nc2cc3c(cn2)c(-c2cccn2CCN(C)C)nn31 (stereo not shown)")
"0.01 to 0.1 µM"
>>> endpoint_result("CCN(CC)CCN(C)c1cc(F)cc(-c2nn3c4cc(ncc24)Nc2ccnc(n2)-c2cnn(C)c2OCC[C@@H]3C)c1")
"0.01 to 0.1 µM"

Would you mind telling me what GI50 value was observed for CCn1cc(-c2nn3c4cc(ncc24)Nc2ccnc(n2)-c2cnn(C)c2OCC[C@@H]3C)cc1CN1CCOCC1 ?
< 0.01 µM

Would you mind telling me what GI50 value was observed for CC1CCOc2c(cnn2C)-c2nccc(n2)Nc2cc3c(cn2)c(-c2ccn(C)n2)nn31 (stereo not shown) ?
0.01 to 0.1 µM
